The reported measurements were obtained from patent US20260109761A1.

Assayed system: T1, huZIP12-ECD-GST (human, UniProt Q504Y0 24-202)
T1 construct: also called hZIP12-ECD-GST; human ZIP12-ECD-GST; not shown: glutathione S-transferase (GST) tag
T1 sequence (Q504Y0 24-202): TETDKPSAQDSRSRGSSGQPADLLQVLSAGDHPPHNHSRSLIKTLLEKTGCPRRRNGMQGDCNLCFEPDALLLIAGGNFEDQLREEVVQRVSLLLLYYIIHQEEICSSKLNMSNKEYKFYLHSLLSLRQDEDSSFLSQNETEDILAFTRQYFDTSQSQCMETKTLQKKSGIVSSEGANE
Measurement protocol: SPR single cycle kinetics (Biacore): mAb captured on protein A, huZIP12-ECD-GST injected at 3.12-800 nM
Entries and their koff values follow.
Answer in s⁻¹, number only, no unit symbol.

// below: answered binders
# Binder, koff / s⁻¹
records = [
    ("H2_Y60K_VL-par (antibody, V domains shown, Fc null human IgG1 / human kappa) VH: QVQLVESGGGVVQPGRSLRLSCAASGFTFSDYGMHWVRQAPGKGLEWVAYISSGGTTIYKADTVKGRFTISRDNSKNTLYLQMNSLRAEDTAVYYCARWTNLYAMDYWGQGTTVTVSS VL: DIVLTQSPDSLAVSLGERATINCRASKSVSTSGYSYMHWYQQKPGQPPKFLIYLASNLESGVPDRFSGSGSGTDFTLTISSLQAEDVAVYYCQHSREVPYTFGGGTKVEIKR", "4.01e-05"),
    ("H2_T56H_VL-par (antibody, V domains shown, Fc null human IgG1 / human kappa) VH: QVQLVESGGGVVQPGRSLRLSCAASGFTFSDYGMHWVRQAPGKGLEWVAYISSGGHTIYYADTVKGRFTISRDNSKNTLYLQMNSLRAEDTAVYYCARWTNLYAMDYWGQGTTVTVSS VL: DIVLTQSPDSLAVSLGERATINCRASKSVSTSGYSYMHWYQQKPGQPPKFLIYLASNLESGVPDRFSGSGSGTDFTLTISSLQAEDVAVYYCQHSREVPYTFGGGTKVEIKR", "3.38e-05"),
    ("H3_W99H_VL-par (antibody, V domains shown, Fc null human IgG1 / human kappa) VH: QVQLVESGGGVVQPGRSLRLSCAASGFTFSDYGMHWVRQAPGKGLEWVAYISSGGTTIYYADTVKGRFTISRDNSKNTLYLQMNSLRAEDTAVYYCARHTNLYAMDYWGQGTTVTVSS VL: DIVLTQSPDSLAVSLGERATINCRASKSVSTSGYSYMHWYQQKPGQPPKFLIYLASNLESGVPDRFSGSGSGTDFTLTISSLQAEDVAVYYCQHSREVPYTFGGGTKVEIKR", "4.67e-05"),
    ("H2_T63Y_VL-par (antibody, V domains shown, Fc null human IgG1 / human kappa) VH: QVQLVESGGGVVQPGRSLRLSCAASGFTFSDYGMHWVRQAPGKGLEWVAYISSGGTTIYYADYVKGRFTISRDNSKNTLYLQMNSLRAEDTAVYYCARWTNLYAMDYWGQGTTVTVSS VL: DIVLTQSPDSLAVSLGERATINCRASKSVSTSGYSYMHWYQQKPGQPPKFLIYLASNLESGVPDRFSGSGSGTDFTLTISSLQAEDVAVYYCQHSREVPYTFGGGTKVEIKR", "3.04e-05"),
    ("H2_Y60K_L1 (antibody, V domains shown, Fc null human IgG1 / human kappa) VH: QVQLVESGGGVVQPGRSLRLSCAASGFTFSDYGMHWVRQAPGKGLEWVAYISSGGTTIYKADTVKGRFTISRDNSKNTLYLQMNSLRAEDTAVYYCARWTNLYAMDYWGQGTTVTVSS VL: DIVLTQSPDSLAVSLGERATINCRASKSVSTQGYSYMHWYQQKPGQPPKFLIYLASNLESGVPDRFSGSGSGTDFTLTISSLQAEDVAVYYCQHSREVPYTFGGGTKVEIKR", "3.7e-05"),
]

Ask: Query: koff; subject: H3_W99H_L2 (antibody, V domains shown, Fc null human IgG1 / human kappa) VH: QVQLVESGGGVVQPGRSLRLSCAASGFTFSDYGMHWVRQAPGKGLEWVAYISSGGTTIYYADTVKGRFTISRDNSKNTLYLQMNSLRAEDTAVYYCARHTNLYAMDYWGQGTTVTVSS VL: DIVLTQSPDSLAVSLGERATINCRASKSVSTSGYSYMHWYQQKPGQPPKFLIYLASNKESGVPDRFSGSGSGTDFTLTISSLQAEDVAVYYCQHSREVPYTFGGGTKVEIKR
Reply: 3.98e-05
